# target: RORγ (UniProt P51449)
# protocol-description: RORγ Gal4 Reporter Gene Assay in 293T cells (firefly and renilla luciferase)
# Assay type: cell-based, human
# experimental-context: second value of the cell; Gal4 reporter gene assay in 293T cells, firefly luciferase
Label rule not met if pIC50 (FF) falls below 7; label rule met in every other case.

>>> group("Cc1c(C(=O)NC2CCOCC2)cc(-c2ccc(S(=O)(=O)NC(C)(C)C)c3c2CCCC3)n1CC1CCCCC1 [17/280]")
"rule met"
>>> group("Cc1c(C(=O)NCC(C)(C)O)cc(-c2cc(C(C)(C)C)cc(C(C)(C)C)c2)n1S(=O)(=O)N1CCCCC1 [7/7]")
"rule not met"
>>> group("Cc1c(C(=O)N2CC3(CCS(=O)(=O)CC3)C2)cc(-c2ccc(S(=O)(=O)NC(C)(C)C)c3ccccc23)n1CC1CCCCC1 [17/270]")
"rule met"
>>> group("Cc1c(C(=O)N2CCOCC2)cc(-c2cc(C(C)(C)C)cc(C(C)(C)C)c2)n1CC1CCCCC1 [1/52]")
"rule not met"
>>> group("Cc1c(C(=O)NC2CCOCC2)cc(-c2ccc(S(=O)(=O)NC(C)(C)CCF)c(C(F)(F)F)c2)n1CC1CCCCC1 [18/2]")
"rule met"
>>> group("Cc1c(C(=O)NCCC(C)(C)C(=O)O)cc(-c2ccc(S(=O)(=O)NC3(C#N)CC3)c(C(F)(F)F)c2)n1CC1CCCCC1 [17/361]")
"rule not met"
>>> group("Cc1c(C(=O)N[C@H]2C[C@H](C(=O)O)C2)cc(-c2cc(C(C)(C)C)c3c(c2)C2(CCO3)CC2)n1CC1CCCCC1 [17/55]")
"rule met"
>>> group("Cc1c(C(=O)NCC(C)(C)C(=O)O)cc(-c2ccc(S(=O)(=O)NC(C)(C)C)c(C(C)(C)C)c2)n1CC1CCCCC1 [1/129]")
"rule met"

These entries and their values trace back to patent US9815851B2.
